Target: mPGES-1 in A549 cells (Homo sapiens (Human), UniProt O14684)
Sequence (O14684 whole entry): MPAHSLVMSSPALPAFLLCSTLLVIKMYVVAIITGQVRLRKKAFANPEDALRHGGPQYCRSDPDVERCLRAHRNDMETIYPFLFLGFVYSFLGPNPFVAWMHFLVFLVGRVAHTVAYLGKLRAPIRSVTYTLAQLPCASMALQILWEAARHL
Experiment: A549 cell-based assay (PGE2 formation, 50% human serum)
Settings: IL-1β 5 ng/ml, 10 nM arachidonic acid, 20-24 h, read-out: mPGES-1 inhibitory effect IC50 in the cell assay
quantity-measured: IC50 (nM)
The reply should contain only the number, in nM.

Form: compound = `Cn1c(Nc2c(Cl)ccc(CNC(=O)C(C)(C)F)c2Cl)nc2cc(C(=O)NCCC(F)(F)F)c(N3CCC4(CC3)CC4)cc21` ; IC50 = 2

----------
Biological target: mPGES-1 in A549 cells (Homo sapiens (Human))
Test: A549 cell-based assay (PGE2 formation, 50% human serum)
Conditions: IL-1β 5 ng/ml, 10 nM arachidonic acid, 20-24 h, read-out: mPGES-1 inhibitory effect IC50 in the cell assay
quantity-measured: pIC50
# pIC50: negative log10 of molar concentration; output just the value

Previously resolved entries follow.
# compound, pIC50
rows = [
    ("CC(C)(C)C(=O)NCc1ccc(Cl)c(Nc2nc3cc(C(=O)N[C@H]4CC[C@H](C(F)(F)F)CC4)c(N4CCC(C(F)(F)F)CC4)cc3n2CCC(N)=O)c1Cl", 8.22),
    ("Cn1c(Nc2c(Cl)ccc(CNC(=O)C(C)(C)F)c2Cl)nc2cc(C(=O)Nc3ccc(OC(F)(F)F)cc3)c(N3CC[C@@H](F)C3)cc21", 8.30),
    ("Cn1c(Nc2c(Cl)ccc(CNC(=O)C3(C)CC3)c2Cl)nc2cc(C(=O)Nc3ccc(OC(F)(F)F)cc3)c(N3CC[C@@H](F)C3)cc21", 8.70),
]

Form: compound = `CN(Cc1ncnn1C)c1cc2c(cc1C(=O)N[C@H]1CC[C@H](C(F)(F)F)CC1)nc(Nc1c(Cl)ccc(CNC(=O)C(C)(C)C)c1Cl)n2C` ; pIC50 = 7.10

Form: compound = `Cn1c(Nc2c(Cl)ccc(CNC(=O)C(C)(C)C(F)(F)F)c2Cl)nc2cc(C(=O)N[C@H]3CC[C@H](C(F)(F)F)CC3)c(N3CCC(C(F)(F)F)CC3)cc21` ; pIC50 = 9.00

Form: compound = Cn1c(Nc2c(Cl)ccc(CNC(=O)[C@@](C)(O)C(F)(F)F)c2Cl)nc2cc(C(=O)N[C@H]3CC[C@H](C(F)(F)F)CC3)c(N3CC4CC4C3)cc21 (stereo partly shown) [Example 193] ; pIC50 = 8.60

Form: compound = `Cn1c(Nc2c(Cl)ccc(CNC(=O)C(C)(C)C)c2Cl)nc2cc(C(=O)NCc3ccc(F)cc3C(F)(F)F)c(N3CCC(F)(F)C3)cc21` ; pIC50 = 8.22

Form: compound = `Cn1c(Nc2c(Cl)ccc(CNC(=O)C(C)(C)C)c2Cl)nc2cc(C(=O)NCC(F)(F)F)c(N3CCc4ccc(Cl)cc4C3)cc21` ; pIC50 = 8.22

Form: compound = `Cn1c(Nc2c(Cl)ccc(CNC(=O)C(C)(C)C)c2Cl)nc2cc(C(=O)Nc3ccc(OC(F)(F)F)cc3)c(N3CCC(F)CC3)cc21` ; pIC50 = 8.77

Form: compound = Cc1ccc(C(=O)NCc2ccc(Cl)c(Nc3nc4cc(C(=O)N[C@H]5CC[C@H](C(F)(F)F)CC5)c(N5CC6CC6C5)cc4n3C)c2Cl)nc1C (stereo partly shown) ; pIC50 = 8.10

Form: compound = `Cn1c(Nc2c(Cl)ccc(CNC(=O)C(C)(C)C)c2Cl)nc2cc(C(=O)NCC(F)(F)F)c(N3CCC(F)CC3)cc21` ; pIC50 = 9.00

Source: patent US8674113B2
